Reference source for all entries: patent US20220002432A1

- Target under test: recombinant human CD38 (human, UniProt P28907 43-300, limits assumed)
- Assay overview: SPR (Biacore 8K), antibody captured, antigen injected;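 further: antibodies held on a CM5 chip through anti-human IgG Fc, antigen in 3-fold serial dilutions, 1 min association then 10 min dissociation at 25 °C, 1:1 Langmuir global fit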
Measured property: kon (M⁻¹ s⁻¹)
Provide the reading as a plain figure in M⁻¹ s⁻¹.

These solved cases illustrate the format of a correct answer.
23B3 (antibody, human IgG1, kappa, V domains shown, Rabbit-human chimeric anti-CD38: rabbit VH and VL on human IgG1 and kappa constant regions) VH: QSVEESGGRLVTPGTPLTLTCTVSGFSLSNYDMTWVRQAPGRGLEWIGVISSGDNTNYARWAKGRFTISKTSSTTVDLKITSPTTEDTATYFCARILYNKGRYYFTFWGPGTLVTVSS VL: AQVLTQTPSSVSAAVGGTVTINCQSSQSIANSDELAWYQQKPGQPPKLLIYDASTLAPGVPSRFSGSGSGTQFTLTISGVQSDDAATYYCQGTVYDSGWYAAFGGGTEVVVKR    970000
1E2 (antibody, human IgG1, kappa, V domains shown, Rabbit-human chimeric anti-CD38: rabbit VH and VL on human IgG1 and kappa constant regions) VH: QSVEESGGRLVTPGTPLTLTCTVSGIDLNSYAMGWVRQAPGKGLKYIGIMTSGGNIYYANWAKGRFTISKTSTTVDLRITSPTTEDTATYFCAREREFYGGGTSGSRLDLWGQGTLVTVSS VL: AYDMTQTPASVEAAVGGTVTIKCQASQSIYNFLNWYQQKPGQPPKLLIYYASTLAFGVPSRFKGSGSGTEYTLTISGVESADAATYYCQQGWNSGILDNSFGGGTEVVVKR    240000
21H9 (antibody, human IgG1, kappa, V domains shown, Rabbit-human chimeric anti-CD38: rabbit VH and VL on human IgG1 and kappa constant regions) VH: QSLEESGGDLVKPGASLTLTCTASGFSATTYYYYMCWVRQAPGKGLEWIACTYTGDGATYYATWAKGRFTISKTSSTTVTLQMTSLTAADTATYFCARSADNSIYYGYFNLWGPGTLVTVSS VL: AFELTQTPFSVSEPVGGTVTINCQASENIYSSLAWYQQKPGQPPKLLIYRASTLASGVPSRFSGSGSGTEFTLTISGVQSDDAATYYCQTYYGSTSTGFTFGGGTEVVVKR    166000

Quick one: give measured kon for 25C3 (antibody, human IgG1, kappa, V domains shown, Rabbit-human chimeric anti-CD38: rabbit VH and VL on human IgG1 and kappa constant regions) VH: QEQLEESGGDLVKPGASLTLTCKASGFSFSSAYDMCWVRQAPGKGLEWVACLYTVSSDSIYYASWAKGRFTISRTSSTTVTLQMTSLTAADTATYFCARDGDYFALWGPGTLVTVSS VL: DIVMTHTPASVEAAVGGTVTIKCQASQNIGGYLSWYQQKPGQRPKLLIYRASTLASGVPSRFKGSGSGTQFTLTISDLESADAATYYCQTYYYSGSSRYWAFGGGTEVVVKR
1.15e+06

Tell me its kon given 20B5 (antibody, human IgG1, kappa, V domains shown, Rabbit-human chimeric anti-CD38: rabbit VH and VL on human IgG1 and kappa constant regions) VH: QSLEESGGDLVKPGASLTLTCTASGFSFSSRYWICWVRQAPGKGLEWIACIVAGTTNTYYASWAKGRFTISKTSSTTVTLQMTSLTAADTATYFCAGDPRTGSNVGYFNLWGPGTLVTVSS VL: AQVLTQTPSPVSAAVGGTVTINCQASQSVYNNNYLAWFQQKPGQPPKLLIYSASTLASGVPSRFKGSGSGTQFTLTISEVQSDDAATYYCQAYYSGGIYAFGGGTEVVVKR as the entry.
346000

Input 26D4 (antibody, human IgG1, kappa, V domains shown, Rabbit-human chimeric anti-CD38: rabbit VH and VL on human IgG1 and kappa constant regions) VH: QEQLEESGGDLVKPEGSLTLTCTASGFSFSNDAICWVRQAPGKGLEWIACIYAGSGNTYYASWAKGRFSISKTSSTTVTLQMTSLTVADTATYFCASADTIDYFNLWGPGTLVTVSS VL: AQVLTQTPSPVSAAVGGTVTINCQASQSVYNNNYLAWYQQKPGQPPKLLIYRASNLASGVPSRFSASGSGTQFTLTISEVQSDDAATYYCQAYYRDPTTAFGGGTEVVVKR , output reported kon.
200000
